Test: activity coefficient (dimensionless); of the first substance listed, at infinite dilution; xn = mol fraction of the nth substance listed
Settings: 343.15 K; Liquid; Chromatography; x1 = 0
QUANTITY: activity coefficient

1) CCCO [propan-1-ol] + CCCCCCCCn1cc[n+](COCCCOC[n+]2ccn(CCCCCCCC)c2C)c1C.O=S(=O)([N-]S(=O)(=O)C(F)(F)F)C(F)(F)F.O=S(=O)([N-]S(=O)(=O)C(F)(F)F)C(F)(F)F; 0.77
2) C1CCCCC1 [cyclohexane] + CCCOC[n+]1ccn(C)c1.N#C[N-]C#N; 22.7
3) c1ccccc1 [benzene] + CCCOC[n+]1ccn(C)c1.N#C[N-]C#N; 2.29
4) CCO [ethanol] + CN(C)c1cc[n+](COCCCOC[n+]2ccc(N(C)C)cc2)cc1.O=S(=O)([N-]S(=O)(=O)C(F)(F)F)C(F)(F)F.O=S(=O)([N-]S(=O)(=O)C(F)(F)F)C(F)(F)F; 1.02
5) c1ccsc1 [thiophene] + Cn1cc[n+](COCCCOC[n+]2ccn(C)c2)c1.N#C[N-]C#N.N#C[N-]C#N; 1.68
6) CC(C)OC(C)C [diisopropyl ether] + Cn1cc[n+](COCCCOC[n+]2ccn(C)c2)c1.O=S(=O)([N-]S(=O)(=O)C(F)(F)F)C(F)(F)F.O=S(=O)([N-]S(=O)(=O)C(F)(F)F)C(F)(F)F; 5.54
7) CC#N [acetonitrile] + CCCOC[n+]1ccc(N(C)C)cc1.O=S(=O)([N-]S(=O)(=O)C(F)(F)F)C(F)(F)F; 0.52
8) C#CCCCCC [1-heptyne] + CCCOC[n+]1ccn(Cc2ccccc2)c1.O=S(=O)([N-]S(=O)(=O)C(F)(F)F)C(F)(F)F; 2.25
9) C1COCCO1 [1,4-dioxane] + CCCCCCCCn1cc[n+](COCCCOC[n+]2ccn(CCCCCCCC)c2C)c1C.N#C[N-]C#N.N#C[N-]C#N; 0.55
10) CC(C)OC(C)C [diisopropyl ether] + CCCCCCCCn1cc[n+](COCCCOC[n+]2ccn(CCCCCCCC)c2C)c1C.N#C[N-]C#N.N#C[N-]C#N; 3.93
11) c1ccccc1 [benzene] + CCCOC[n+]1ccn(C)c1.F[B-](F)(F)F; 3.46
12) CCC[N+](=O)[O-] [1-nitropropane] + CCCOC[n+]1ccn(C)c1.F[B-](F)(F)F; 1.78
13) CCc1ccccc1 [ethylbenzene] + CCCCCCCCn1cc[n+](COCCCOC[n+]2ccn(CCCCCCCC)c2C)c1C.O=S(=O)([N-]S(=O)(=O)C(F)(F)F)C(F)(F)F.O=S(=O)([N-]S(=O)(=O)C(F)(F)F)C(F)(F)F; 0.74

* * *

Experiment: activity coefficient (dimensionless); of the first substance listed, at infinite dilution; xn = mol fraction of the nth substance listed
Conditions: 323.15 K; Liquid; Chromatography; x1 = 0
t if activity coefficient is below 2. f if not; exact matches included in f.

1) Cc1ccc(C)cc1 [1,4-dimethylbenzene] + CCCCCCCCn1cc[n+](COCCCOC[n+]2ccn(CCCCCCCC)c2C)c1C.N#C[N-]C#N.N#C[N-]C#N; t
2) Cc1ccccc1C [1,2-dimethylbenzene] + Cn1cc[n+](COCCCOC[n+]2ccn(C)c2)c1.N#C[N-]C#N.N#C[N-]C#N; f
3) c1ccccc1 [benzene] + CCCOC[n+]1ccn(C)c1.F[B-](F)(F)F; f
4) CC(C)O [propan-2-ol] + CCCOC[n+]1ccc(N(C)C)cc1.O=S(=O)([N-]S(=O)(=O)C(F)(F)F)C(F)(F)F; t
5) CCC(=O)CC [pentan-3-one] + Cn1cc[n+](COCCCOC[n+]2ccn(C)c2)c1.N#C[N-]C#N.N#C[N-]C#N; f
6) CCCCCCC [heptane] + CCCOC[n+]1ccn(Cc2ccccc2)c1.N#C[N-]C#N; f
7) c1ccsc1 [thiophene] + CCCCCCCCn1cc[n+](COCCC)c1C.O=S(=O)([N-]S(=O)(=O)C(F)(F)F)C(F)(F)F; t

* * *

Test: activity coefficient (dimensionless); of the first substance listed, at infinite dilution; xn = mol fraction of the nth substance listed
Conditions: 323.15 K; Liquid; Chromatography; x1 = 0
Readings of activity coefficient for the listed molecules
QUANTITY: activity coefficient

1. CCO [ethanol] + Cn1cc[n+](COCCCOC[n+]2ccn(C)c2)c1.O=S(=O)([N-]S(=O)(=O)C(F)(F)F)C(F)(F)F.O=S(=O)([N-]S(=O)(=O)C(F)(F)F)C(F)(F)F; 1.06
2. ClCCl [dichloromethane] + CCCCCCCCn1cc[n+](COCCCOC[n+]2ccn(CCCCCCCC)c2C)c1C.N#C[N-]C#N.N#C[N-]C#N; 0.28
3. CCC(=O)CC [pentan-3-one] + CCCCCCCCn1cc[n+](COCCC)c1C.N#C[N-]C#N; 0.88
4. CO [methanol] + N#C[N-]C#N.N#C[N-]C#N.c1ccc(Cn2cc[n+](COCCCOC[n+]3ccn(Cc4ccccc4)c3)c2)cc1; 0.52
5. c1ccccc1 [benzene] + CCCOC[n+]1ccn(C)c1.O=S(=O)([N-]S(=O)(=O)C(F)(F)F)C(F)(F)F; 1.2
6. CCCO [propan-1-ol] + CCCOC[n+]1ccc(N(C)C)cc1.O=S(=O)([N-]S(=O)(=O)C(F)(F)F)C(F)(F)F; 1.93
7. CC(C)OC(C)C [diisopropyl ether] + CCCCCCCCn1cc[n+](COCCC)c1C.N#C[N-]C#N; 4.17
8. ClCCl [dichloromethane] + CCCOC[n+]1ccn(Cc2ccccc2)c1.O=S(=O)([N-]S(=O)(=O)C(F)(F)F)C(F)(F)F; 0.52
9. CO [methanol] + CCCCCCCCn1cc[n+](COCCC)c1C.N#C[N-]C#N; 0.32
10. CO [methanol] + CCCOC[n+]1ccn(C)c1.N#C[N-]C#N; 0.44
11. ClC(Cl)(Cl)Cl [tetrachloromethane] + CCCCCCCCn1cc[n+](COCCC)c1C.O=S(=O)([N-]S(=O)(=O)C(F)(F)F)C(F)(F)F; 1.21
12. CCCCCCCC [octane] + CCCOC[n+]1ccn(C)c1.O=S(=O)([N-]S(=O)(=O)C(F)(F)F)C(F)(F)F; 34.1
13. CO [methanol] + CCCOC[n+]1ccc(N(C)C)cc1.O=S(=O)([N-]S(=O)(=O)C(F)(F)F)C(F)(F)F; 1.28
14. CCCC(C)=O [pentan-2-one] + Cn1cc[n+](COCCCOC[n+]2ccn(C)c2)c1.N#C[N-]C#N.N#C[N-]C#N; 3.5
15. CCN(CC)CC [triethylamine] + Cn1cc[n+](COCCCOC[n+]2ccn(C)c2)c1.N#C[N-]C#N.N#C[N-]C#N; 54.6

* * *

activity coefficient values for the compounds below.
Experiment: activity coefficient (dimensionless); of the first substance listed, at infinite dilution; xn = mol fraction of the nth substance listed
Conditions: 343.15 K; Liquid; Chromatography; x1 = 0
QUANTITY: activity coefficient

1) Cc1cccc(C)c1 [1,3-dimethylbenzene] + CN(C)c1cc[n+](COCCCOC[n+]2ccc(N(C)C)cc2)cc1.O=S(=O)([N-]S(=O)(=O)C(F)(F)F)C(F)(F)F.O=S(=O)([N-]S(=O)(=O)C(F)(F)F)C(F)(F)F; 1.4
2) C1COCCO1 [1,4-dioxane] + CCCOC[n+]1ccn(Cc2ccccc2)c1.N#C[N-]C#N; 0.89
3) CCCCCCC [heptane] + CCCOC[n+]1ccn(Cc2ccccc2)c1.O=S(=O)([N-]S(=O)(=O)C(F)(F)F)C(F)(F)F; 9.58

* * *

activity coefficient for assorted compounds
Assay: activity coefficient (dimensionless); of the first substance listed, at infinite dilution; xn = mol fraction of the nth substance listed
Settings: 343.15 K; Liquid; Chromatography; x1 = 0
QUANTITY: activity coefficient

1. CC#N [acetonitrile] + CCCOC[n+]1ccn(C)c1.O=S(=O)([N-]S(=O)(=O)C(F)(F)F)C(F)(F)F; 0.46
2. CC#N [acetonitrile] + Cn1cc[n+](COCCCOC[n+]2ccn(C)c2)c1.O=S(=O)([N-]S(=O)(=O)C(F)(F)F)C(F)(F)F.O=S(=O)([N-]S(=O)(=O)C(F)(F)F)C(F)(F)F; 0.24
3. CCC(C)CC [3-methylpentane] + CCCCCCCCn1cc[n+](COCCC)c1C.N#C[N-]C#N; 6.25

* * *

Assay: activity coefficient (dimensionless); of the first substance listed, at infinite dilution; xn = mol fraction of the nth substance listed
Settings: 333.15 K; Liquid; Chromatography; x1 = 0
Binary classification by activity coefficient, with 1 as an inclusive lower bound for Condition met; all other cases are Condition not met.

1. c1ccsc1 [thiophene] + CCCOC[n+]1ccn(Cc2ccccc2)c1.F[B-](F)(F)F; Condition met
2. c1ccccc1 [benzene] + CCCOC[n+]1ccc(N(C)C)cc1.O=S(=O)([N-]S(=O)(=O)C(F)(F)F)C(F)(F)F; Condition not met
3. CCCCCCCCCCC [undecane] + CCCOC[n+]1ccn(C)c1.F[B-](F)(F)F; Condition met
4. ClC(Cl)Cl [trichloromethane] + CN(C)c1cc[n+](COCCCOC[n+]2ccc(N(C)C)cc2)cc1.O=S(=O)([N-]S(=O)(=O)C(F)(F)F)C(F)(F)F.O=S(=O)([N-]S(=O)(=O)C(F)(F)F)C(F)(F)F; Condition not met
5. CCCC(C)=O [pentan-2-one] + CCCCCCCCn1cc[n+](COCCCOC[n+]2ccn(CCCCCCCC)c2C)c1C.O=S(=O)([N-]S(=O)(=O)C(F)(F)F)C(F)(F)F.O=S(=O)([N-]S(=O)(=O)C(F)(F)F)C(F)(F)F; Condition not met
6. C1CCCCCC1 [cycloheptane] + CCCOC[n+]1ccc(N(C)C)cc1.O=S(=O)([N-]S(=O)(=O)C(F)(F)F)C(F)(F)F; Condition met
7. CCO [ethanol] + Cn1cc[n+](COCCCOC[n+]2ccn(C)c2)c1.N#C[N-]C#N.N#C[N-]C#N; Condition not met
8. CC(C)CO [2-methyl-1-propanol] + Cn1cc[n+](COCCCOC[n+]2ccn(C)c2)c1.O=S(=O)([N-]S(=O)(=O)C(F)(F)F)C(F)(F)F.O=S(=O)([N-]S(=O)(=O)C(F)(F)F)C(F)(F)F; Condition met
9. CCCO [propan-1-ol] + Cn1cc[n+](COCCCOC[n+]2ccn(C)c2)c1.O=S(=O)([N-]S(=O)(=O)C(F)(F)F)C(F)(F)F.O=S(=O)([N-]S(=O)(=O)C(F)(F)F)C(F)(F)F; Condition met
10. CCCCCCCC [octane] + CCCCCCCCn1cc[n+](COCCCOC[n+]2ccn(CCCCCCCC)c2C)c1C.O=S(=O)([N-]S(=O)(=O)C(F)(F)F)C(F)(F)F.O=S(=O)([N-]S(=O)(=O)C(F)(F)F)C(F)(F)F; Condition met
11. CCCCCCCCCCCC [dodecane] + CCCOC[n+]1ccc(N(C)C)cc1.O=S(=O)([N-]S(=O)(=O)C(F)(F)F)C(F)(F)F; Condition met
12. CCC[N+](=O)[O-] [1-nitropropane] + CCCCCCCCn1cc[n+](COCCC)c1C.N#C[N-]C#N; Condition not met

The origin of these recorded values is the NIST ThermoML archive (doi:10.1016/j.fluid.2014.11.020).
